Molecular target: T1, recombinant human soluble gpNMB (recombinant human gpNMB-FLAG-His) (human, UniProt Q14956 23-498)
T1 sequence: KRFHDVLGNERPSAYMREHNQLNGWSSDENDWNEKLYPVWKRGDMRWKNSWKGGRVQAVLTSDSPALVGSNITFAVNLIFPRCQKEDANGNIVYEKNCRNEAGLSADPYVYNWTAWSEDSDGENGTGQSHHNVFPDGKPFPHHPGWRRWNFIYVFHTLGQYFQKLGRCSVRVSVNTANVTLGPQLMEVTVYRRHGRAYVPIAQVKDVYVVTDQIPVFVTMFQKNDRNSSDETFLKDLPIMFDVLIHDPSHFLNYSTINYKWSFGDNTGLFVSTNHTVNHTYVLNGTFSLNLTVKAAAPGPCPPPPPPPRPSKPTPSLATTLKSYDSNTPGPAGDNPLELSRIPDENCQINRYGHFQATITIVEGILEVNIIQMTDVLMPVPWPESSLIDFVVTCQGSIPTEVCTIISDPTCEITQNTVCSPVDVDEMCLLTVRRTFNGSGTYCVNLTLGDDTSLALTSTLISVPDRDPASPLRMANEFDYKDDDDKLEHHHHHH
Assay: antigen ELISA, vs hGPN06-1_H1L1
# Relative binding activity values compiled below
Quick one: just the number, no unit, thanks!

Sample answers from the record:
INSERT INTO assay_data (binder, measurement) VALUES
  ('hGPN06-1_H1L1 VH K106A (antibody, V domains shown) VH: QVQLVQSGAEVKKPGASVKVSCKASGYTFTDNWMGWVKQRPGQGLEWIGAIDPSDSFTNYNQNFKGRVTMTVDTSISTAYMELSRLRSDDSAVYFCTRSGYYGSPALGGDYWGQGTLVTVSS VL: EIVLTQSPSSLSASVGDRVTITCSASSSISYMHWYQQKSGTAPKLLIYSTSNLASGVPSRFSGSGSGTDFTFTISSLQPEDAATYYCHQWNSYPCTFGGGTKLEIK', 1),
  ('hGPN06-1_H1L1 VH G108A (antibody, V domains shown) VH: QVQLVQSGAEVKKPGASVKVSCKASGYTFTDNWMGWVKQRPGQGLEWIGAIDPSDSFTNYNQNFKGRVTMTVDTSISTAYMELSRLRSDDSAVYFCTRSGYYGSPKLAGDYWGQGTLVTVSS VL: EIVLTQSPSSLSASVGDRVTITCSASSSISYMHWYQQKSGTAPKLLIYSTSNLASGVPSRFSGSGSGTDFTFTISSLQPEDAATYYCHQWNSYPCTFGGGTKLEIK', 0.96),
  ('hGPN06-1_H1L1 VH Y101A (antibody, V domains shown) VH: QVQLVQSGAEVKKPGASVKVSCKASGYTFTDNWMGWVKQRPGQGLEWIGAIDPSDSFTNYNQNFKGRVTMTVDTSISTAYMELSRLRSDDSAVYFCTRSGAYGSPKLGGDYWGQGTLVTVSS VL: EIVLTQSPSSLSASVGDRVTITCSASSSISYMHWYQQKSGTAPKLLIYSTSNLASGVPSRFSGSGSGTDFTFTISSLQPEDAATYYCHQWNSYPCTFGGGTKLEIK', 1.04);

Let us examine a further case.
Give recorded Relative binding activity. hGPN06-1_H1L1 VH S104A (antibody, V domains shown) VH: QVQLVQSGAEVKKPGASVKVSCKASGYTFTDNWMGWVKQRPGQGLEWIGAIDPSDSFTNYNQNFKGRVTMTVDTSISTAYMELSRLRSDDSAVYFCTRSGYYGAPKLGGDYWGQGTLVTVSS VL: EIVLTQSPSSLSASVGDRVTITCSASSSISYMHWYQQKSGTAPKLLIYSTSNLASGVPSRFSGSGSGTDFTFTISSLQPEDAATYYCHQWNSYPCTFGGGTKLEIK
0.88
